target: Human Fc (human); experiment: ELISA, negative control
measurement.name: optical density (OD)
# number only, unit OD dropped from output

- binder: "370_G10 (antibody, V domains shown) VH: EVQLLESGGGLVQPGGSLRLSCAASGFTFSDYGMNWVRQAPGKGLEWVSGINYNSGYTSYADSVKGRFTISRDNSKNTLYLQMNSLRAEDTAVYYCARSANWHDTALDYWGQGTLVTVSS VL: DIQMTQSPSSLSASVGDRVTITCRASQSISSYLNWYQQKPGKAPKLLIYVVNNRASGVPSRFSGSGSGTDFTLTISSLQPEDFATYYCQQSYENPLTFGGGTKVEIK"
  optical density (OD): 0.315

Lookup: Which optical density value is on record for 371_A12 (antibody, V domains shown) VH: EVQLLESGGGLVQPGGSLRLSCAASGFTFDSYSMNWVRQAPGKGLEWVAGINYNSGYTSYADSVKGRFTISRDNSKNTLYLQMNSLRAEDTAVYYCARSANWHDTALDYWGQGTLVTVSS VL: DIQMTQSPSSLSASVGDRVTITCRASQSILSYVNWYQQKPGKAPKLVIYAATSLASGVPSRFSGSGSGTDFTLTISSLQPEDFATYYCQQSYDTPLTFGGGTKVEIK ?
Found: 0.483
